- TARGET_ENTITY: human α2β3γ2 GABAARs (benzodiazepine site) (Homo sapiens (Human), UniProt P18507+P47869)
- Sequence (P47869 29-451): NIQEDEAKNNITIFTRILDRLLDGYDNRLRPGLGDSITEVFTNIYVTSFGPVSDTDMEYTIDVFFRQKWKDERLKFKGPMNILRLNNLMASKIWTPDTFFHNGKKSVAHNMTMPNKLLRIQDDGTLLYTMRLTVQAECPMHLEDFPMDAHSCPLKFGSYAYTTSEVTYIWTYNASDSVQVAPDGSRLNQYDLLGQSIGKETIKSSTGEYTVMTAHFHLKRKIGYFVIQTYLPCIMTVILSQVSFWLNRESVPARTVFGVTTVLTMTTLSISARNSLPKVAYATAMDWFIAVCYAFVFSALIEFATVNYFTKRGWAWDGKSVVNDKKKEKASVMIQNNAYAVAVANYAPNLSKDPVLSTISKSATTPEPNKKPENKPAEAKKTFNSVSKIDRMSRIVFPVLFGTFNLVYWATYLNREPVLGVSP
- Sequence (P28472 26-473 partner): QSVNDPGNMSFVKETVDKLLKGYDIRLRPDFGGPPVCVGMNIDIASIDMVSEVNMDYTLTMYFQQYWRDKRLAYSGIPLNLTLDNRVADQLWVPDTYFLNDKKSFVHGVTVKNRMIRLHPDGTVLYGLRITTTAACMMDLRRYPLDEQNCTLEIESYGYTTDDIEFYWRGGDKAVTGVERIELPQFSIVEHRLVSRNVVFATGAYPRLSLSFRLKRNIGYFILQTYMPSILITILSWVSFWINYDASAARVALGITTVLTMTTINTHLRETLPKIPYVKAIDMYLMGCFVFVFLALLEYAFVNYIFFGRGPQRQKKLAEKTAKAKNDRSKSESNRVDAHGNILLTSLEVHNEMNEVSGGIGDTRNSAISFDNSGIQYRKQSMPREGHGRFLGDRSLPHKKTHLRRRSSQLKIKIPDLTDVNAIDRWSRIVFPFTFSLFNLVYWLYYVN
- Sequence (P18507 40-475): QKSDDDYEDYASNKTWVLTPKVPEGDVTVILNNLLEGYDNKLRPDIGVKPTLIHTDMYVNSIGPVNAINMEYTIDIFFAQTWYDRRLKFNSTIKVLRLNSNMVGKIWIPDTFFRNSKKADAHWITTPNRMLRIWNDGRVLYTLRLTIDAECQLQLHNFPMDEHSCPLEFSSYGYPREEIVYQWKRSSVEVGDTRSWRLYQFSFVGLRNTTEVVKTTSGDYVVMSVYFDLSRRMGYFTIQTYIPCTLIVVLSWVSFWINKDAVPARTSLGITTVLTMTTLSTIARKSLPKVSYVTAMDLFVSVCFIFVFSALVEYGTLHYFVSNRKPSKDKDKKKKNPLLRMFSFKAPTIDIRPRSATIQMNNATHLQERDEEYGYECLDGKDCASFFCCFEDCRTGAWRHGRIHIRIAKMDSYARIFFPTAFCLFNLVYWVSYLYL
- METHOD_DESCRIPTION: In vitro radioligand binding assay ([3H]Ro15-1788 displacement), α2-GABAAR Ki
Measured pKi by item
Formally, pKi is defined as -log10 of the concentration c, with c in mol/L.

In the examples that follow, each entry is paired with its recorded pKi.
INSERT INTO measurements (smiles_entry, numeric_result) VALUES
  ('CCCNC(=O)c1c(N)c2cccc(-c3cnccc3F)c2[nH]c1=O', 7.62),
  ('CCCNC(=O)c1c(N)c2cccc(-c3nc(CN4CCN(C)CC4)ccc3F)c2[nH]c1=O', 8.73),
  ('CCCNC(=O)c1c(N)c2cccc(-c3cc(OCc4cccc(C(F)(F)F)n4)ccc3F)c2[nH]c1=O', 8.52);

## Task Entry `CCCNC(=O)c1c(N)c2cccc(-c3cc(OCc4ccc(F)cc4C#N)ccc3F)c2[nH]c1=O` : reported pKi = ?
## Result 9.14

## Task Entry `CCCNC(=O)c1c(N)c2cccc(-c3cc(OCc4cccc(C)n4)ccc3F)c2[nH]c1=O` : reported pKi = ?
## Result 8.71

## Task Entry `CCCNC(=O)c1c(N)c2cccc(-c3cc(OCc4csc(C)n4)ccc3F)c2[nH]c1=O` : reported pKi = ?
## Result 8.92

## Task Entry `[2H]C([2H])([2H])C([2H])([2H])C([2H])([2H])NC(=O)c1c(N)c2cccc(-c3cnccc3OC)c2[nH]c1=O` : reported pKi = ?
## Result 8.16

## Task Entry `CCCNC(=O)c1c(N)c2cccc(-c3cc(F)ccn3)c2[nH]c1=O` : reported pKi = ?
## Result 8.90

## Task Entry `CCCNC(=O)c1c(N)c2cccc(-c3ccnc(C)n3)c2[nH]c1=O` : reported pKi = ?
## Result 8.96

## Task Entry `CCCNC(=O)c1c(N)c2cccc(-c3nc(OC)ncc3F)c2[nH]c1=O` : reported pKi = ?
## Result 9.25

## Task Entry `CCCNC(=O)c1c(N)c2cccc(-c3nc(OCCOC)ncc3F)c2[nH]c1=O` : reported pKi = ?
## Result 8.83

## Task Entry `CCCNC(=O)c1c(N)c2cccc(-c3cccc(OC)c3)c2[nH]c1=O` : reported pKi = ?
## Result 8.74
